Quick reference: pIC50 of the listed items.
TARGET_DESC: GppNp-loaded HIS-KRAS (G12D, aa 1-169) / cRAF RBD (Homo sapiens, UniProt P01116, G12D)
Construct: GppNp-loaded HIS-KRAS (G12D, aa 1-169)
Sequence (P01116 1-169 isoform P01116-2 G12D): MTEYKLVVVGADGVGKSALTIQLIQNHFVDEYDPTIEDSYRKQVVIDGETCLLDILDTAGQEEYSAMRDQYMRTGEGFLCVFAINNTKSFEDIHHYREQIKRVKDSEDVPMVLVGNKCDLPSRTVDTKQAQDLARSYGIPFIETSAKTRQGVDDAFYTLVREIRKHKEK
TEST_METHOD_NOTES: GTP-KRAS and cRAF interaction assay
EXPERIMENTAL_CONDITIONS: HTRF, 2 hours at 25° C.
The scale used: pIC50 is minus the common logarithm of the concentration in molar units.

Prompt: Hello, I am looking for reported pIC50 with GppNp-loaded HIS-KRAS (G12D, aa 1-169) / cRAF RBD (Homo sapiens, UniProt P01116, G12D) for C#Cc1cccc2cc(O)cc(-c3ccc4c(N5CC6CCC(C5)N6)nc(OC[C@@]56CCCN5C[C@H](F)C6)nc4c3Cl)c12 . Could you help?
Completion: 6.65

Prompt: Short answer please: pIC50, GppNp-loaded HIS-KRAS (G12D, aa 1-169) / cRAF RBD (Homo sapiens, UniProt P01116, G12D), entry C#Cc1c(F)ccc2cc(O)cc(-c3ccc4c(N5CC6CCC(C5)N6)nc(OCC5(CN6CCOCC6)CC5)nc4c3F)c12
Completion: 7.75

Prompt: Request: pIC50, test system GppNp-loaded HIS-KRAS (G12D, aa 1-169) / cRAF RBD (Homo sapiens, UniProt P01116, G12D), entry C#Cc1cccc2cc(O)cc(-c3ccc4c(N5CC6CCC(C5)N6)nc(OCC5(CN6CCO[C@H](C)C6)CC5)nc4c3F)c12
Completion: 6.88

Prompt: For GppNp-loaded HIS-KRAS (G12D, aa 1-169) / cRAF RBD (Homo sapiens, UniProt P01116, G12D), provide pIC50 of C#Cc1c(F)ccc2cc(O)cc(-c3c(Cl)cc4c(N5CC6CCC(C5)N6)nc(OCC5(CN6CCOCC6)CC5)nc4c3F)c12 (single isomer, unassigned) [Compound 99A] please.
Completion: 5.68

Prompt: Quick check: pIC50 on GppNp-loaded HIS-KRAS (G12D, aa 1-169) / cRAF RBD (Homo sapiens, UniProt P01116, G12D), item C#Cc1cccc2cc(O)cc(-c3ccc4c(N5CC6CCC(C5)N6)nc(OCC5(CN6CCC[C@H](F)C6)CC5)nc4c3F)c12 ?
Completion: 6.91

Prompt: Could you share what pIC50 was measured for C#Cc1c(F)ccc2cc(O)cc(-c3ccc4c(N5CC6CCC(C5)N6)nc(OC[C@@]56CCCN5C[C@H](F)C6)nc4c3F)c12 , tested on GppNp-loaded HIS-KRAS (G12D, aa 1-169) / cRAF RBD (Homo sapiens, UniProt P01116, G12D)?
Completion: 7.69

###

TARGET_DESC: GppNp-loaded HIS-KRAS (G12D, aa 1-169) / cRAF RBD (Homo sapiens, UniProt P01116, G12D)
Construct: GppNp-loaded HIS-KRAS (G12D, aa 1-169)
TEST_METHOD_NOTES: GTP-KRAS and cRAF interaction assay
EXPERIMENTAL_CONDITIONS: HTRF, 2 hours at 25° C.
OBSERVATION_TYPE: pIC50
Give only the number. pIC50 is defined as minus log10 of concentration in molar units.

Prompt: Find pIC50 (GppNp-loaded HIS-KRAS (G12D, aa 1-169) / cRAF RBD (Homo sapiens, UniProt P01116, G12D)) for the entry C#Cc1cccc2cc(O)cc(-c3cc4nc(OCC5(CN6CCOCC6)CC5)nc(N5CC6CCC(C5)N6)c4cc3CC)c12 [Compound 109]
Completion: 6.85

###

Test system: AGS
TEST_METHOD_NOTES: Cell growth inhibition assay (AGS)
Type: cell-based
EXPERIMENTAL_CONDITIONS: Homo sapiens, 144 h, 6 days incubation, CellTiter-Glo
Method: 4. Cell Growth Inhibition Assay AGS cultured in F12K medium (Gibco) containing 10% fetal bovine serum (Gibco). Cells in culture medium were plated in 96-well plates at a concentration of 500 cells/well ([…]) and allowed to attach overnight. The next day, compounds were diluted in culture medium and added to the plates. After 6 days incubation in a 37° C./5% CO2 cell incubator, the cell viability was detected by CellTiter-Glo® Luminescent Cell Viability Assay kit (Promega). […]
pIC50: −log10 of the molar value.
I would appreciate it if you labelled entries yes (1) when pIC50 is 8 or higher, otherwise no (0).

COMPOUND	LABEL_CLASS
C#Cc1c(F)ccc2cc(O)cc(-c3c(C(C)C)cc4c(N5CC6CCC(C5)N6)nc(OCC5(CN6CCOCC6)CC5)nc4c3F)c12	yes (1)

Prompt: In plain terms: is recorded pIC50 at least 8 for C#Cc1c(F)ccc2cc(O)cc(-c3ccc4c(N5CC6CCC(C5)N6)nc(OCC5(CN6CCOCC6)CC5)nc4c3F)c12 ?
Completion: yes (1)

Prompt: Quick check, pIC50 >= 8? C#Cc1c(F)ccc2cc(O)cc(-c3ccc4c(N5CC6CCC(C5)N6)nc(OCC5(CN6CCCC(F)C6)CC5)nc4c3F)c12 (centres unmarked)
Completion: yes (1)

Prompt: Is pIC50 at least 8? Consider C#Cc1cccc2cc(O)cc(-c3c(C(=C)C)cc4c(N5CC6CCC(C5)N6)nc(OCC5(CN6CCOCC6)CC5)nc4c3F)c12
Completion: no (0)

Prompt: Record C#Cc1cccc2cc(O)cc(-c3ccc4c(N5CC6CCC(C5)N6)nc(OCC5(CN(C)CCO)CC5)nc4c3F)c12 ; criterion: pIC50 no lower than 8. Met?
Completion: no (0)

Prompt: Check if pIC50 >= 8 (inclusive). Item: C#Cc1c(F)ccc2cc(O)cc(-c3c(C4CC4)cc4c(N5CC6CCC(C5)N6)nc(OC[C@@]56CCCN5C[C@H](F)C6)nc4c3F)c12
Completion: no (0)

###

TARGET_DESC: GppNp-loaded HIS-KRAS (G12D, aa 1-169) / cRAF RBD (Homo sapiens, UniProt P01116, G12D)
Construct: GppNp-loaded HIS-KRAS (G12D, aa 1-169)
TEST_METHOD_NOTES: GTP-KRAS and cRAF interaction assay
EXPERIMENTAL_CONDITIONS: HTRF, 2 hours at 25° C.
From the text: 2. GTP-KRAS and cRAF Interaction Assay […]
Parameter: IC50. Scope: all listed entries.

MOLECULE	TARGET_DESC	OBSERVATION_TYPE	REPORTED_RESULT
C#Cc1cccc2cc(O)cc(-c3cc4nc(OC[C@@]56CCCN5C[C@H](F)C6)nc(N5CC6CCC(C5)N6)c4cc3C)c12	GppNp-loaded HIS-KRAS (G12D, aa 1-169) / cRAF RBD (Homo sapiens, UniProt P01116, G12D)	IC50	84.2 nM
C#Cc1cccc2cc(O)cc(-c3c(C(F)(F)F)cc4c(N5CC6CCC(C5)N6)nc(OCC5(CN6CCOCC6)CC5)nc4c3F)c12 [Compound 98]	GppNp-loaded HIS-KRAS (G12D, aa 1-169) / cRAF RBD (Homo sapiens, UniProt P01116, G12D)	IC50	20.1 nM
C#Cc1cccc2cc(O)cc(-c3c(Cl)cc4c(N5CC6CCC(C5)N6)nc(OCC5(CN6CCOCC6)CC5)nc4c3Cl)c12 (single isomer, unassigned) [Compound 107A]	GppNp-loaded HIS-KRAS (G12D, aa 1-169) / cRAF RBD (Homo sapiens, UniProt P01116, G12D)	IC50	> 10000 nM
C#Cc1cccc2cc(O)cc(-c3c(F)cc4c(N5CC6CCC(C5)N6)nc(OCC5(CN6CCOCC6)CC5)nc4c3F)c12 (single isomer, unassigned) [Compound 41B]	GppNp-loaded HIS-KRAS (G12D, aa 1-169) / cRAF RBD (Homo sapiens, UniProt P01116, G12D)	IC50	50.4 nM
CCc1cccc2cc(O)cc(-c3ccc4c(N5CC6CCC(C5)N6)nc(OC[C@@]56CCCN5C[C@H](F)C6)nc4c3F)c12	GppNp-loaded HIS-KRAS (G12D, aa 1-169) / cRAF RBD (Homo sapiens, UniProt P01116, G12D)	IC50	102 nM

Please find the next molecule below.
Prompt: Form field: reported IC50 of C#Cc1cccc2cc(O)cc(-c3c(SC(F)(F)F)cc4c(N5CC6CCC(C5)N6)nc(OCC5(CN6CCOCC6)CC5)nc4c3F)c12 (single isomer, unassigned) [Compound 59A]
Completion: > 1000 nM

###

TARGET_DESC: GDP-loaded HIS-KRAS (G12D, aa 1-169) (Homo sapiens, UniProt P01116, G12D)
Construct: GDP-loaded HIS-KRAS (G12D, aa 1-169)
Sequence (P01116 1-169 isoform P01116-2 G12D): as above
TEST_METHOD_NOTES: SOS1 catalyzed nucleotide exchange assay
EXPERIMENTAL_CONDITIONS: SOS1 ExD, TR-FRET, 4 hours at 25° C.
OBSERVATION_TYPE: IC50 (nM)
Lab book: enter the figure in nM, no units written.

COMPOUND	IC50 (nM)
C#Cc1c(F)ccc2cc(O)cc(-c3ccc4c(N5CC6CCC(C5)N6)nc(OCC5(CN6CCC(O)CC6)CC5)nc4c3F)c12	4.33
CCc1cccc2cc(O)cc(-c3ccc4c(N5CC6CCC(C5)N6)nc(OC[C@@]56CCCN5C[C@H](F)C6)nc4c3F)c12	4.82
C#Cc1cccc2cc(O)cc(-c3ccc4c(N5CC6CCC(C5)N6)nc(OC[C@@]56CCCN5C[C@H](F)C6)nc4c3)c12	29.5

Prompt: # query: IC50 of entry CCc1cccc2cc(O)cc(-c3ccc4c(N5CC6CCC(C5)N6)nc(OCC5(CN6CCOCC6)CC5)nc4c3F)c12
Completion: 7.21

Prompt: Sample C#Cc1c(F)ccc2cc(O)cc(-c3c(Cl)cc4c(N5CC6CCC(C5)N6)nc(OCC5(CN6CCOCC6)CC5)nc4c3F)c12 (single isomer, unassigned) [Compound 99B] — what was its IC50?
Completion: 0.403
